MIC values, listed per item
- Tested on: Escherichia coli
- test.name: In vitro antimicrobial activity against Escherichia coli DC 2
- Format: functional
Write it as a number; the unit µg/mL goes unstated.

Reference set, count: 3
compound: CO/N=C(/C(=O)N[C@@H]1C(=O)N2C(C(=O)[O-])=C(C[n+]3cccc(-c4cc(CO)nn4CCO)c3)CS[C@H]12)c1csc(N)n1
experimental.target: Escherichia coli
units: µg/mL
MIC: 0.098
--
compound: CO/N=C(/C(=O)N[C@@H]1C(=O)N2C(C(=O)[O-])=C(C[n+]3cccc(-c4cc(C(N)=O)nn4C)c3)CS[C@H]12)c1csc(N)n1
experimental.target: Escherichia coli
units: µg/mL
MIC: 0.025
--
compound: CO/N=C(/C(=O)NC1C(=O)N2C(C(=O)[O-])=C(C[n+]3cccc4c3CCC4)CSC12)c1csc(N)n1 (configuration not stated)
experimental.target: Escherichia coli
units: µg/mL
MIC: 0.013

Q: Recorded MIC for CO/N=C(/C(=O)N[C@@H]1C(=O)N2C(C(=O)[O-])=C(C[n+]3cccc(-c4cc(CO)nn4C)c3)CS[C@H]12)c1csc(N)n1 with Escherichia coli, please?
Result: 0.049

Q: One more compound: CO/N=C(/C(=O)N[C@@H]1C(=O)N2C(C(=O)[O-])=C(C[n+]3cccc(-c4cc(C)[nH]n4)c3)CS[C@H]12)c1csc(N)n1
Result: 0.013

Q: Entry CO/N=C(/C(=O)N[C@@H]1C(=O)N2C(C(=O)[O-])=C(C[n+]3cccc(-c4cc(C(N)=O)nn4CCO)c3)CS[C@H]12)c1csc(N)n1 please
Result: 0.098

Q: // repeat for CO/N=C(/C(=O)N[C@@H]1C(=O)N2C(C(=O)[O-])=C(C[n+]3cccc(-c4cc(N)n(CCO)n4)c3)CS[C@H]12)c1csc(N)n1 and report
Result: 0.013

The origin of these recorded values is ChEMBL document CHEMBL1132901.
